Catalogue of Ratio IC50 readings, one per entry.
species on record: Homo sapiens; experiment: Selectivity for human MAOB over human MAOA

These recorded examples may help you get a feel for the data.
molecule	recorded_value
Cc1ccc(C2CC(=O)c3ccccc3O2)cc1 (racemic)	> 48
Cc1ccc(-c2cc(=O)c3ccccc3o2)cc1	> 42
Fc1ccc(-c2cc(=S)c3ccc(F)cc3o2)cc1	> 15

Data point: COc1ccc2c(=O)cc(-c3ccc(F)cc3)oc2c1 ; Ratio IC50 = > 19

Data point: Cc1ccc(-c2cc(=S)c3ccc(C)cc3o2)cc1 ; Ratio IC50 = > 15

Data point: COc1ccc(C2CC(=O)c3ccc(F)cc3O2)cc1 (racemic) ; Ratio IC50 = > 588

Data point: O=c1cc(-c2ccccc2)oc2cc(F)ccc12 ; Ratio IC50 = > 7.7

Data point: COc1ccc(C2CC(=O)c3ccccc3O2)cc1 (racemic) ; Ratio IC50 = > 45

Data point: COc1ccc(-c2cc(=O)c3ccc(OC)cc3o2)cc1 ; Ratio IC50 = > 2

Data point: Cc1ccc2c(c1)OC(c1ccc(F)cc1)CC2=O (racemic) ; Ratio IC50 = > 769

Data point: COc1ccc2c(c1)OC(c1ccccc1)CC2=O (racemic) ; Ratio IC50 = > 68

----------
Catalogue of pIC50 readings, one per entry.
assay: Inhibition of human monoamine oxidase
Lab note — pIC50 values are minus log10 of concentrations in M.

compound	pIC50
COc1cc(-c2cc(=O)c3c(O)c(OC)c(O)cc3o2)ccc1O [JACEOSIDINE]	4.72
O=C1c2c(O)cc(O)cc2O[C@H](c2ccc(O)cc2)[C@H]1O [DIHYDROKAEMPFEROL]	3.82
COc1c(O)cc2oc(-c3ccc(O)c(O)c3)cc(=O)c2c1O [EUPAFOLIN]	4.60

Next up:
Data point: O=C1c2c(O)cc(O)cc2O[C@H](c2ccc(O)c(O)c2)[C@H]1O [(+)-TAXIFOLIN] ; pIC50 = 3.81

----------
molecular target: Amine oxidase [flavin-containing] A (Homo sapiens, UniProt P21397); assay: Inhibition of human recombinant MAOA expressed in BTI-TN-5B1-4 cells at 100 uM by para-tyramine oxidation assay; type: cell-based; conditions: human, bti-tn-5b1-4, 100 µM
Sequence (P21397 whole entry): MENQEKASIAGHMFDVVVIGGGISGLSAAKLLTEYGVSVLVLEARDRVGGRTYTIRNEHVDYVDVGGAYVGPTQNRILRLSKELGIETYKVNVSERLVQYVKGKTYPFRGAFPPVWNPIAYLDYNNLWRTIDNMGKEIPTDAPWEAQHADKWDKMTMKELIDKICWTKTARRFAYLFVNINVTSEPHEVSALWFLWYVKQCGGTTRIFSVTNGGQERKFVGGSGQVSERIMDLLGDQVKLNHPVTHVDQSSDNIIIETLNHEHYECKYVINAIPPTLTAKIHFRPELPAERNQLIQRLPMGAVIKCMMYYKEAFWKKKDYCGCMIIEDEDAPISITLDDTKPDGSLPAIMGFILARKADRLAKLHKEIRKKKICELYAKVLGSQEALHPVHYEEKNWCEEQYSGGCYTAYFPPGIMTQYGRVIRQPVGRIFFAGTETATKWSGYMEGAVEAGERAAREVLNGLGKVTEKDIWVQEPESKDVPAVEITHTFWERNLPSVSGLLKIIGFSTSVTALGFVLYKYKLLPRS
metric_name: inhibition (INH)

These recorded examples may help you get a feel for the data.
compound	inhibition (INH)
COc1ccc2c(=O)cc(-c3ccccc3)oc2c1 [7-METHOXYFLAVONE]	Not Active
COc1ccc(C2CC(=O)c3ccc(OC)cc3O2)cc1 (racemic) [LIQUIRITIGENIN DIMETHYL ETHER]	Not Active
Fc1ccc(-c2cc(=S)c3ccccc3o2)cc1	Not Active
COc1ccc(-c2cc(=S)c3ccc(F)cc3o2)cc1	Not Active
O=C1CC(c2ccc(F)cc2)Oc2cc(F)ccc21 (racemic)	Not Active

Data point: COc1ccc(-c2cc(=O)c3ccc(OC)cc3o2)cc1 [4,7-DIMETHOXYFLAVONE] ; inhibition (INH) = Not Active

Data point: Cc1ccc(C2CC(=O)c3ccc(C)cc3O2)cc1 (racemic) ; inhibition (INH) = Not Active

Data point: Cc1ccc2c(c1)OC(c1ccccc1)CC2=O (racemic) ; inhibition (INH) = Not Active

Data point: Cc1ccc(-c2cc(=S)c3ccccc3o2)cc1 ; inhibition (INH) = Not Active

Data point: O=C1CC(c2ccccc2)Oc2ccccc21 (racemic) [FLAVANONE] ; inhibition (INH) = Not Active

Data point: COc1ccc2c(c1)OC(c1ccc(F)cc1)CC2=O (racemic) ; inhibition (INH) = Not Active

----------
target: Amine oxidase [flavin-containing] B (Homo sapiens, UniProt P27338); assay: Inhibition of human recombinant MAOB expressed in BTI-TN-5B1-4 cells at 100 uM by para-tyramine oxidation assay; assay type: cell-based; conditions: BTI-TN-5B1-4, human
metric_name: inhibition at 100 µM (%)
Use % as the unit, but write only the number.

These recorded examples may help you get a feel for the data.
compound	inhibition at 100 µM (%)
Cc1ccc2c(=S)cc(-c3ccc(F)cc3)oc2c1	40
S=c1cc(-c2ccccc2)oc2ccccc12	40
COc1ccc2c(=S)cc(-c3ccc(F)cc3)oc2c1	40
Fc1ccc2c(=S)cc(-c3ccccc3)oc2c1	40
Cc1ccc(-c2cc(=O)c3ccc(C)cc3o2)cc1	40

Data point: Cc1ccc2c(=S)cc(-c3ccccc3)oc2c1 ; inhibition at 100 µM = 40

Data point: COc1ccc2c(=S)cc(-c3ccccc3)oc2c1 ; inhibition at 100 µM = 40

Data point: COc1ccc(-c2cc(=S)c3ccc(C)cc3o2)cc1 ; inhibition at 100 µM = 40

Data point: COc1ccc2c(=O)cc(-c3ccccc3)oc2c1 [7-METHOXYFLAVONE] ; inhibition at 100 µM = 40

Data point: COc1ccc(-c2cc(=S)c3ccc(F)cc3o2)cc1 ; inhibition at 100 µM = 40

Data point: Cc1ccc2c(=O)cc(-c3ccc(F)cc3)oc2c1 ; inhibition at 100 µM = 40

Data point: COc1ccc(-c2cc(=O)c3ccc(C)cc3o2)cc1 ; inhibition at 100 µM = 40

Data point: O=c1cc(-c2ccc(F)cc2)oc2ccccc12 ; inhibition at 100 µM = 40

----------
Biological target: Amine oxidase [flavin-containing] B (Homo sapiens)
Sequence (P27338 whole entry): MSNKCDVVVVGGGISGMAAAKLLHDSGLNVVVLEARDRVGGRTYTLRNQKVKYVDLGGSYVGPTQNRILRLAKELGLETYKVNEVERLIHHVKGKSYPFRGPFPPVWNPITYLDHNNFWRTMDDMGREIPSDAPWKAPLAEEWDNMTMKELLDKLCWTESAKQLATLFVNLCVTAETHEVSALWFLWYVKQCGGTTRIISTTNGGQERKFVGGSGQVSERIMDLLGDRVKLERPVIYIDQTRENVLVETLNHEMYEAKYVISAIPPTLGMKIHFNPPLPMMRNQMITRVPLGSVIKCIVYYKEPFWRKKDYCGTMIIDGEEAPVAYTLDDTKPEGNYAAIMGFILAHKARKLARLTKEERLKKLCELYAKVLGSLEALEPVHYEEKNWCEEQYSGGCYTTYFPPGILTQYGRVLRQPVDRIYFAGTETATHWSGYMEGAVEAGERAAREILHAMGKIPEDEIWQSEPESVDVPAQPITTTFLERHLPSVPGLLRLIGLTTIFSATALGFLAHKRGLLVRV
Assay: Inhibition of human MAOB
metric_name: IC50 (µM)
Use µM as the unit, but write only the number.

molecule_smiles	metric_name	recorded_value
O=c1cc(-c2ccc(O)cc2)oc2cc(O)cc(O)c12	IC50	12.8
O=c1c(O)c(-c2ccc(O)c(O)c2)oc2cc(O)cc(O)c12	IC50	90

Next up:
Data point: O=c1cc(-c2ccc(O)c(O)c2)oc2cc(O)cc(O)c12 ; IC50 = 59.7

----------
Catalogue of Ratio IC50 readings, one per entry.
organism: Homo sapiens; assay: Selectivity for human MAOB over human MAOA

compound	recorded_value
Cc1ccc([C@@H]2CC(=O)c3ccc(C)cc3O2)cc1	> 169
Cc1ccc(-c2cc(=O)c3ccc(F)cc3o2)cc1	> 23
COc1ccc(-c2cc(=O)c3ccc(F)cc3o2)cc1	> 75

Data point: Cc1ccc(C2CC(=O)c3ccc(F)cc3O2)cc1 (racemic) ; Ratio IC50 = > 625

Data point: COc1ccc2c(c1)O[C@H](c1ccc(F)cc1)CC2=O ; Ratio IC50 = > 625

Data point: COc1ccc2c(c1)OC(c1ccc(F)cc1)CC2=O (racemic) ; Ratio IC50 = > 588

Data point: COc1ccc2c(c1)O[C@@H](c1ccc(F)cc1)CC2=O ; Ratio IC50 = > 500

----------
Catalogue of Ratio IC50 readings, one per entry.
organism: Homo sapiens; experiment: Selectivity for human MAOB over human MAOA

These recorded examples may help you get a feel for the data.
compound	Ratio IC50
COc1ccc2c(=S)cc(-c3ccc(C)cc3)oc2c1	> 13
O=C1CC(c2ccccc2)Oc2ccccc21 (racemic) [FLAVANONE]	> 35
Cc1ccc([C@H]2CC(=O)c3ccc(C)cc3O2)cc1	> 189
Cc1ccc(C2CC(=O)c3ccc(C)cc3O2)cc1 (racemic)	> 200
Cc1ccc2c(c1)OC(c1ccccc1)CC2=O (racemic)	> 28

Data point: COc1ccc2c(=O)cc(-c3ccc(C)cc3)oc2c1 ; Ratio IC50 = > 8.8

Data point: Cc1ccc(-c2cc(=S)c3ccc(F)cc3o2)cc1 ; Ratio IC50 = > 62

Data point: COc1ccc(C2CC(=O)c3ccc(C)cc3O2)cc1 (racemic) ; Ratio IC50 = > 30

Data point: O=C1CC(c2ccc(F)cc2)Oc2ccccc21 (racemic) ; Ratio IC50 = > 23

Data point: COc1ccc(-c2cc(=O)c3ccccc3o2)cc1 [4'-METHOXYFLAVONE] ; Ratio IC50 = > 3.6

Data point: Cc1ccc(-c2cc(=S)c3ccccc3o2)cc1 ; Ratio IC50 = > 15
